- Test system: E. coli transcribing antisense RNA to rplL and rplJ (AS-rplL/J)
- Assay comment: microbe, parasite or virus in culture
- Format: cell-based
- Protocol conditions: IC50 without IPTG versus IC50 with 400 μM IPTG
Positions of bridges follow the written chain, without caps; N, C: chain ends. Non-standard residues stand in square brackets, D forms with d. Residues, ends and D or L forms follow the SMILES beside them. *: point of attachment. Ileψ(thiazoline)Cys = CC[C@H](C)[C@H](N)C1=N[C@H](C(=O)*)CS1; dOrn = NCCC[C@@H](N)C(=O)O
Criterion: Fold Increase in Sensitivity meeting or surpassing 90 Fold. Met: Condition met. Not met: Condition not met.

| Molecule | Target of assay | Discrete label |
| --- | --- | --- |
| CC1COc2c(N3CCN(C)CC3)c(F)cc3c(=O)c(C(=O)O)cn1c23 (stereo not drawn) [Ofloxacin] | E. coli transcribing antisense RNA to rplL and rplJ (AS-rplL/J) | Condition not met |
| CN(C)[C@@H]1C(O)=C(C(N)=O)C(=O)[C@@]2(O)C(O)=C3C(=O)c4c(O)cccc4[C@@](C)(O)[C@H]3C[C@@H]12 [Tetracycline] | E. coli transcribing antisense RNA to rplL and rplJ (AS-rplL/J) | Condition met |
| CC(=O)O[C@H]1C[C@@]2(C)[C@@H](C[C@@H](O)[C@H]3[C@@]4(C)CC[C@@H](O)[C@@H](C)[C@@H]4CC[C@@]32C)/C1=C(\CCC=C(C)C)C(=O)O [Fusidic acid] | E. coli transcribing antisense RNA to rplL and rplJ (AS-rplL/J) | Condition met |
| CC[C@H](C)[C@H](N)C1=N[C@H](C(=O)N[C@@H](CC(C)C)C(=O)N[C@H](CCC(=O)O)C(=O)N[C@H](C(=O)N[C@H]2CCCCNC(=O)[C@H](CC(N)=O)NC(=O)[C@@H](CC(=O)O)NC(=O)[C@H](Cc3cnc[nH]3)NC(=O)[C@@H](Cc3ccccc3)NC(=O)[C@H]([C@@H](C)CC)NC(=O)[C@@H](CCCN)NC2=O)[C@@H](C)CC)CS1 [Bacitracin] ({Ileψ(thiazoline)Cys}-L[dE]IK[dOrn]I[dF]H[dD]N; lactam 4-C) | E. coli transcribing antisense RNA to rplL and rplJ (AS-rplL/J) | Condition not met |
| CO/N=C(\C(=O)N[C@@H]1C(=O)N2C(C(=O)O)=C(COC(C)=O)CS[C@H]12)c1csc(N)n1 [Cefotaxime] | E. coli transcribing antisense RNA to rplL and rplJ (AS-rplL/J) | Condition not met |
| CCn1cc(C(=O)O)c(=O)c2ccc(C)nc21 [Nalidixic acid] | E. coli transcribing antisense RNA to rplL and rplJ (AS-rplL/J) | Condition not met |
| [H]/N=C(/N)N[C@H]1[C@H](O)[C@@H](O)[C@H](O[C@@H]2O[C@@H](C)[C@](O)(C=O)[C@H]2O[C@@H]2O[C@@H](CO)[C@H](O)[C@@H](O)[C@@H]2NC)[C@@H](N/C(N)=N\[H])[C@@H]1O [Streptomycin] | E. coli transcribing antisense RNA to rplL and rplJ (AS-rplL/J) | Condition not met |
| CC[C@H]1OC(=O)[C@H](C)[C@@H](O[C@H]2C[C@@](C)(OC)[C@@H](O)[C@H](C)O2)[C@H](C)[C@@H](O[C@@H]2O[C@H](C)C[C@H](N(C)C)[C@H]2O)[C@](C)(O)C[C@@H](C)C(=O)[C@H](C)[C@@H](O)[C@]1(C)O [Erythromycin] | E. coli transcribing antisense RNA to rplL and rplJ (AS-rplL/J) | Condition not met |
| CN(C)c1ccc(O)c2c1C[C@H]1C[C@H]3[C@H](N(C)C)C(O)=C(C(N)=O)C(=O)[C@@]3(O)C(O)=C1C2=O [Minocycline] | E. coli transcribing antisense RNA to rplL and rplJ (AS-rplL/J) | Condition met |
| CCC[C@@H]1C[C@@H](C(=O)N[C@@H]([C@H]2O[C@H](SC)[C@H](O)[C@@H](O)[C@H]2O)[C@@H](C)O)N(C)C1 [Lincomycin] | E. coli transcribing antisense RNA to rplL and rplJ (AS-rplL/J) | Condition met |
| NC[C@H]1O[C@H](O[C@H]2[C@H](O)[C@@H](O[C@H]3O[C@H](CO)[C@@H](O)[C@H](N)[C@H]3O)[C@H](N)C[C@@H]2N)[C@H](N)C[C@@H]1O [Tobramycin] | E. coli transcribing antisense RNA to rplL and rplJ (AS-rplL/J) | Condition not met |
| CO[C@@]1(NC(=O)Cc2cccs2)C(=O)N2C(C(=O)O)=C(COC(N)=O)CS[C@@H]21 [Cefoxitin] | E. coli transcribing antisense RNA to rplL and rplJ (AS-rplL/J) | Condition not met |
